Reference source for all entries: patent EP4772193A1

# tested_system: T1, human gpNMB (Human Osteoactivin, His-tag, AcroBioSystems) (human, UniProt Q14956-2 23-486, limits assumed)
# T1 sequence (looked up): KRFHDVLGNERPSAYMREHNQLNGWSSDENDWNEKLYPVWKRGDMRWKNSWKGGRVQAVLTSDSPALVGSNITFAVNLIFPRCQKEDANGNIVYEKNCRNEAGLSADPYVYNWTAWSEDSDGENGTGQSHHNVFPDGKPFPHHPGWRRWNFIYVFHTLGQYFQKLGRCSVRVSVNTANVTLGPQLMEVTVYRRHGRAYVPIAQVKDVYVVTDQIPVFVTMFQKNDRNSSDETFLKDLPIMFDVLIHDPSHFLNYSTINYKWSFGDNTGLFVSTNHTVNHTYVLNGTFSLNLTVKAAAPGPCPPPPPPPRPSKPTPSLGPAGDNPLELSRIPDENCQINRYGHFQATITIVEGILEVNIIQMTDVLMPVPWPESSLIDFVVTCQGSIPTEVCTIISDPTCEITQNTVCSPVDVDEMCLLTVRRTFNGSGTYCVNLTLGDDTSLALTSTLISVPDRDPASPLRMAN
# experimental_protocol: SPR Biacore 8K, antibody captured on protein A, gpNMB as analyte
metric: Kd (µM)
Expressed in µM, but write only the number.

Sample records with Kd:
INSERT INTO assay_data (binder, recorded_result) VALUES
  ('hGPN18-5_H1L1 (antibody, V domains shown, humanized; also called hGPN18-5_VH1+VL1) VH: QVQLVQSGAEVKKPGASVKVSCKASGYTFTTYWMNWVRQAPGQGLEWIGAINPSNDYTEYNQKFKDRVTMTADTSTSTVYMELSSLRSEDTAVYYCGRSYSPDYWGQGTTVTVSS VL: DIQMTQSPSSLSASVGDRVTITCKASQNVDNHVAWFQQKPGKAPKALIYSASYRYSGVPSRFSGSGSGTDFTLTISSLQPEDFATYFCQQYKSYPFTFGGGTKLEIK', 0.651),
  ('hGPN18-5_H2L3 (antibody, V domains shown, humanized; also called hGPN18-5_VH2+VL3; GPN18-5-VH2+VL3) VH: QVQLVQSGAEVKKPGASVKVSCKASGYTFTTYWMNWVRQAPGQGLEWIGAINPSNDYTEYNQKFKDRATMTADTSTSTVYMELSSLRSEDTAVYYCGRSYSPDYWGQGTTVTVSS VL: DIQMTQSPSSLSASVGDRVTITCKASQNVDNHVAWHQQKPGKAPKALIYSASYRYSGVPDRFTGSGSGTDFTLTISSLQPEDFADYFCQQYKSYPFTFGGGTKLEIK', 0.19);

Okay, next one:
Given the entry hGPN18-5_H3L1 (antibody, V domains shown, humanized; also called hGPN18-5 VH3+VL1) VH: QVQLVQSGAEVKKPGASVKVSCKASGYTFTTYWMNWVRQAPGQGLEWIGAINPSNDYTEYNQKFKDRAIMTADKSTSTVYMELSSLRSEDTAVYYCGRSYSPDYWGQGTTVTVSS VL: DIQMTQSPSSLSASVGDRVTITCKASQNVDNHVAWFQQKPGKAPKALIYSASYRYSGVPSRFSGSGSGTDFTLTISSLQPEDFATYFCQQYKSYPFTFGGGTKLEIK , report its measured Kd. 0.711
